meta.source: paper PMC10861881

- Experimental Details: PK study IV/PO, cynomolgus monkey
- Type: in vivo
- Cond: plasma, po
Reported Metric: bioavailability (%)

Chemical Smiles: C=C(C)C(=O)Nc1ccc(-c2c(-c3ccc(Oc4nccc(C)n4)c(F)c3)c3c(N)ncnc3n2C)cc1
Observed Value: 47

---

- Experimental Details: CACO2 permeability
- Cond: human, Caco-2

Chemical Smiles: C=C(C)C(=O)Nc1ccc(-c2c(-c3ccc(Oc4nccc(C)n4)c(F)c3)c3c(N)ncnc3n2C)cc1
Papp B→A / ×10⁻⁶ cm/s: 6.8

---

- Experimental Details: Hepatocyte intrinsic clearance, mouse
- Type: in vitro ADME
- Cond: hepatocytes
Reported Metric: hepatocyte CLint

Chemical Smiles: C=C(C)C(=O)Nc1ccc(-c2c(-c3ccc(Oc4nccc(C)n4)c(F)c3)c3c(N)ncnc3n2C)cc1
Observed Value: 29 µL/min/1e6 cells

---

- Experimental Details: Plasma protein binding, rat
- Assay type: in vitro ADME
- Cond: Sprague-Dawley, pooled plasma
Reported Metric: fraction unbound at 18 h, 5 μM

Chemical Smiles: C=C(C)C(=O)Nc1ccc(-c2c(-c3ccc(Oc4nccc(C)n4)c(F)c3)c3c(N)ncnc3n2C)cc1
Observed Value: 0.016

---

- Experimental Details: Hepatocyte intrinsic clearance, cynomolgus monkey
- Type: in vitro ADME
- Cond: hepatocytes

Compound: C=C(C)C(=O)Nc1ccc(-c2c(-c3ccc(Oc4nccc(C)n4)c(F)c3)c3c(N)ncnc3n2C)cc1 [Lirafugratinib]
hepatocyte CLint / µL/min/1e6 cells: 6.5

---

- Experimental Details: Hepatocyte intrinsic clearance, rat
- Format: in vitro ADME
- Cond: hepatocytes
Reported Metric: hepatocyte CLint (µL/min/1e6 cells)

Chemical Smiles: C=C(C)C(=O)Nc1ccc(-c2c(-c3ccc(Oc4nccc(C)n4)c(F)c3)c3c(N)ncnc3n2C)cc1
Reported Metric: hepatocyte CLint
Value Unit: µL/min/1e6 cells
Observed Value: 30

---

- Experimental Details: PK study IV/PO, mouse
- Format: in vivo
- Cond: BALB/c nude, plasma, iv

Compound: C=C(C)C(=O)Nc1ccc(-c2c(-c3ccc(Oc4nccc(C)n4)c(F)c3)c3c(N)ncnc3n2C)cc1 [Lirafugratinib]
half-life / min: 66

---

- Experimental Details: PK study IV/PO, rat
- Assay type: in vivo
- Cond: Sprague-Dawley, in vivo, po
Reported Metric: bioavailability (%)

Chemical Smiles: C=C(C)C(=O)Nc1ccc(-c2c(-c3ccc(Oc4nccc(C)n4)c(F)c3)c3c(N)ncnc3n2C)cc1
Observed Value: 18

---

- Experimental Details: PK study IV/PO, dog
- Type: in vivo
- Cond: beagle, plasma, iv
Reported Metric: Vd (L/kg)

Chemical Smiles: C=C(C)C(=O)Nc1ccc(-c2c(-c3ccc(Oc4nccc(C)n4)c(F)c3)c3c(N)ncnc3n2C)cc1
Observed Value: 1.3

---

- Experimental Details: Plasma protein binding, dog
- Format: in vitro ADME
- Cond: beagle, pooled plasma

Compound: C=C(C)C(=O)Nc1ccc(-c2c(-c3ccc(Oc4nccc(C)n4)c(F)c3)c3c(N)ncnc3n2C)cc1 [Lirafugratinib]
fraction unbound at 18 h, 5 μM: 0.023

---

- Experimental Details: PK study IV/PO, cynomolgus monkey
- Format: in vivo
- Cond: plasma, iv

Chemical Smiles: C=C(C)C(=O)Nc1ccc(-c2c(-c3ccc(Oc4nccc(C)n4)c(F)c3)c3c(N)ncnc3n2C)cc1
Value Unit: h
half-life: 1.4

---

- Experimental Details: Hepatocyte intrinsic clearance, human
- Type: in vitro ADME
- Cond: hepatocytes
Reported Metric: hepatocyte CLint

Chemical Smiles: C=C(C)C(=O)Nc1ccc(-c2c(-c3ccc(Oc4nccc(C)n4)c(F)c3)c3c(N)ncnc3n2C)cc1
Reported Metric: hepatocyte CLint
Observed Value: < 1 µL/min/1e6 cells

---

- Experimental Details: Plasma protein binding, mouse
- Assay type: in vitro ADME
- Cond: pooled plasma

Compound: C=C(C)C(=O)Nc1ccc(-c2c(-c3ccc(Oc4nccc(C)n4)c(F)c3)c3c(N)ncnc3n2C)cc1 [Lirafugratinib]
fraction unbound at 18 h, 5 μM: 0.0082

---

- Experimental Details: PK study IV/PO, rat
- Type: in vivo
- Cond: Sprague-Dawley, in vivo, iv
Reported Metric: half-life

Chemical Smiles: C=C(C)C(=O)Nc1ccc(-c2c(-c3ccc(Oc4nccc(C)n4)c(F)c3)c3c(N)ncnc3n2C)cc1
Observed Value: 11.4 min

---

- Experimental Details: PK study IV/PO, rat
- Format: in vivo
- Cond: Sprague-Dawley, in vivo, iv
Reported Metric: Vd

Chemical Smiles: C=C(C)C(=O)Nc1ccc(-c2c(-c3ccc(Oc4nccc(C)n4)c(F)c3)c3c(N)ncnc3n2C)cc1
Observed Value: 0.98 L/kg

---

- Experimental Details: Plasma protein binding, cynomolgus monkey
- Format: in vitro ADME
- Cond: pooled plasma
Reported Metric: fraction unbound at 18 h, 5 μM

Chemical Smiles: C=C(C)C(=O)Nc1ccc(-c2c(-c3ccc(Oc4nccc(C)n4)c(F)c3)c3c(N)ncnc3n2C)cc1
Observed Value: 0.002

---

- Experimental Details: Thermodynamic solubility FaSSIF/SGF
- Type: physicochemical
- Cond: SGF, simulated gastric fluid, thermodynamic from solid
Reported Metric: solubility (µM)

Compound: C=C(C)C(=O)Nc1ccc(-c2c(-c3ccc(Oc4nccc(C)n4)c(F)c3)c3c(N)ncnc3n2C)cc1 [Lirafugratinib]
Reported Metric: solubility
Value Unit: µM
Observed Value: 540

---

- Experimental Details: CACO2 permeability
- Cond: human, Caco-2
Reported Metric: Papp A→B

Chemical Smiles: C=C(C)C(=O)Nc1ccc(-c2c(-c3ccc(Oc4nccc(C)n4)c(F)c3)c3c(N)ncnc3n2C)cc1
Observed Value: 53 nm/s

---

- Experimental Details: PK study IV/PO, cynomolgus monkey
- Type: in vivo
- Cond: plasma, iv

Chemical Smiles: C=C(C)C(=O)Nc1ccc(-c2c(-c3ccc(Oc4nccc(C)n4)c(F)c3)c3c(N)ncnc3n2C)cc1
Value Unit: L/kg
Vd: 0.26

---

- Experimental Details: PK study IV/PO, dog
- Assay type: in vivo
- Cond: beagle, plasma, iv

Chemical Smiles: C=C(C)C(=O)Nc1ccc(-c2c(-c3ccc(Oc4nccc(C)n4)c(F)c3)c3c(N)ncnc3n2C)cc1
half-life / min: 33

---

- Experimental Details: Hepatocyte intrinsic clearance, dog
- Format: in vitro ADME
- Cond: hepatocytes
Reported Metric: hepatocyte CLint (µL/min/1e6 cells)

Chemical Smiles: C=C(C)C(=O)Nc1ccc(-c2c(-c3ccc(Oc4nccc(C)n4)c(F)c3)c3c(N)ncnc3n2C)cc1
Observed Value: 19

---

- Experimental Details: PK study IV/PO, dog
- Format: in vivo
- Cond: beagle, plasma, iv

Chemical Smiles: C=C(C)C(=O)Nc1ccc(-c2c(-c3ccc(Oc4nccc(C)n4)c(F)c3)c3c(N)ncnc3n2C)cc1
clearance: 28 mL/min/kg

---

- Experimental Details: PK study IV/PO, mouse
- Type: in vivo
- Cond: BALB/c nude, plasma, iv

Chemical Smiles: C=C(C)C(=O)Nc1ccc(-c2c(-c3ccc(Oc4nccc(C)n4)c(F)c3)c3c(N)ncnc3n2C)cc1
clearance: 4.4 mL/min/kg
